target: kinases (Homo sapiens, UniProt P10721, V559D/V654A); construct: purchased Eurofins/DiscoveRx; host or cells: E. coli BL21-derived host (T7 phage display) for most kinases; HEK-293 for the rest; assay: KINOMEscan kinase binding assay (Eurofins/DiscoveRx), % Ctrl; details: target KIT(V559D, V654A); 1 μM
Sequence (P10721 26-976 V559D/V654A): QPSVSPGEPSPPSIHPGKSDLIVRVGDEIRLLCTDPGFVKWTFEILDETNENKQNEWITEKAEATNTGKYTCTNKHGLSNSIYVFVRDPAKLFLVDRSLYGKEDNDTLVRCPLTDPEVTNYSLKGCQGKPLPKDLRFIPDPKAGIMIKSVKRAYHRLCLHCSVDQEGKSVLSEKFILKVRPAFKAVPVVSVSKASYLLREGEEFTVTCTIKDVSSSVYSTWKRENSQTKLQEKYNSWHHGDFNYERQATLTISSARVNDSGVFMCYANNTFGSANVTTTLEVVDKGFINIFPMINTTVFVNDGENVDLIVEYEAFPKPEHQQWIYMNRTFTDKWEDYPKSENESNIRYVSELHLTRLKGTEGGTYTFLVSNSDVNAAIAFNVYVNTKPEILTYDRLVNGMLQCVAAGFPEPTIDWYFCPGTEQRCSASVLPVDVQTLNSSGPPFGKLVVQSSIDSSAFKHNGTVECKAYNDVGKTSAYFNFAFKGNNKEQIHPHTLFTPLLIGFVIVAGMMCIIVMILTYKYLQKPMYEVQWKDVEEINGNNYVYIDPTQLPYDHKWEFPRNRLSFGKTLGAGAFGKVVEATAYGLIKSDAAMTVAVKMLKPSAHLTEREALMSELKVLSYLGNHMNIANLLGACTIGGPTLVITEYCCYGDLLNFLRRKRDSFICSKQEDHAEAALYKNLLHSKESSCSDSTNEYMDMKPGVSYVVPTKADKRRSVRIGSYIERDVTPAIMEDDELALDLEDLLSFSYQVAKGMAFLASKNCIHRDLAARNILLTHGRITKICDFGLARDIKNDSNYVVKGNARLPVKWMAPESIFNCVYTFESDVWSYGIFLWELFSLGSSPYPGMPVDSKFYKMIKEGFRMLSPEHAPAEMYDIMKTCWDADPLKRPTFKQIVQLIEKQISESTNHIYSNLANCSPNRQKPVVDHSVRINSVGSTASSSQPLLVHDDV
measured-parameter: % Ctrl, KIT(V559D, V654A) (% Ctrl)

# example entries with known answers
| smiles-code | tested-on | meas-value |
| --- | --- | --- |
| Cc1cc2c([nH]1)/C=C1\C(=O)Nc3cc(Cl)c(cc31)OCCO[C@@H](C(=O)N1CCN(C)CC1)CN(C)C2=O | kinases (Homo sapiens, UniProt P10721, V559D/V654A) | 62 |
| Cc1nn(C)c2c1-c1ccc3c(c1)/C(=C/c1[nH]ccc1C(=O)N(C)CCCO2)C(=O)N3 | kinases (Homo sapiens, UniProt P10721, V559D/V654A) | 100 |
| Cc1cc2c([nH]1)/C=C1\C(=O)Nc3ccc(cc31)-c1c(noc1C)CNCCN(C)C2=O | kinases (Homo sapiens, UniProt P10721, V559D/V654A) | 75 |

A: CN1CCSCCOc2cc3c(cc2Cl)NC(=O)/C3=C\c2[nH]ccc2C1=O
B: Cc1cc2c([nH]1)/C=C1\C(=O)Nc3ccc(cc31)-c1c(C)nn(C)c1COCCN(C)C2=O
C: CN1CCOCCOc2cc3c(cc2Cl)NC(=O)/C3=C\c2[nH]ccc2C1=O
D: Cc1cc2c([nH]1)/C=C1\C(=O)Nc3cnc(cc31)-c1cn[nH]c1CNCCN(C)C2=O
Descending sort on % Ctrl, KIT(V559D, V654A) required. Output the labels ranked as instructed.
B, C, D, A
(B: 97 % Ctrl, C: 33 % Ctrl, D: 22 % Ctrl, A: 13 % Ctrl)

----------
Test system: kinases
Assay: KINOMEscan kinase binding assay (Eurofins/DiscoveRx), % Ctrl
Details: target FLT3(ITD, D835V); 1 μM
Experimental: Kinase binding assays were performed at Eurofins/DiscoveRx using the general KINOMEscan Protocol (Fabian, M. A. et al., “A small molecule-kinase interaction map for clinical kinase inhibitors,” Nat. Biotechnol. 2005, 23(3):329-36). For most assays, kinase-tagged T7 phage strains were prepared in an E. coli host derived from the BL21 strain. […] The kinase concentration in the eluates was measured by qPCR. […]
measured-parameter: % Ctrl, FLT3(ITD, D835V) (% Ctrl)

| molecule | result-unit | % Ctrl, FLT3(ITD, D835V) |
| --- | --- | --- |
| Cc1cc2c([nH]1)/C=C1\C(=O)Nc3ccc(cc31)-c1c(noc1C)CNCCN(C)C2=O [Ex. 139] | % Ctrl | 1.2 |
| Cc1cc2c([nH]1)/C=C1\C(=O)Nc3cc(Cl)c(cc31)OCCO[C@@H](C(=O)N1CCN(C)CC1)CN(C)C2=O [Ex. 138] | % Ctrl | 24 |
| CN1CCOCCOc2cc3c(cc2Cl)NC(=O)/C3=C\c2[nH]ccc2C1=O [Ex. 143] | % Ctrl | 0.6 |
| Cc1cc2c([nH]1)/C=C1\C(=O)Nc3cnc(cc31)-c1cn[nH]c1CNCCN(C)C2=O [Ex. 55] | % Ctrl | 1.2 |

a: CN1CCSCCOc2cc3c(cc2Cl)NC(=O)/C3=C\c2[nH]ccc2C1=O [Ex. 153]
b: Cc1nn(C)c2c1-c1ccc3c(c1)/C(=C/c1[nH]ccc1C(=O)N(C)CCCO2)C(=O)N3 [Ex. 150]
c: Cc1cc2c([nH]1)/C=C1\C(=O)Nc3ccc(cc31)-c1c(C)nn(C)c1COCCN(C)C2=O [Ex. 146]
# ascending order, key=% Ctrl, FLT3(ITD, D835V) Output the labels ranked as instructed.
c, a, b

----------
target: kinases (Homo sapiens, UniProt P00519, Q252H); construct: purchased Eurofins/DiscoveRx; host or cells: E. coli BL21-derived host (T7 phage display) for most kinases; HEK-293 for the rest; assay: KINOMEscan kinase binding assay (Eurofins/DiscoveRx), % Ctrl; conditions: 1 μM; ABL1(Q252H)-phosphorylated
measured-parameter: % Ctrl, ABL1(Q252H)-phosphorylated (% Ctrl)

# example entries with known answers
| smiles-code | % Ctrl, ABL1(Q252H)-phosphorylated [% Ctrl] |
| --- | --- |
| Cc1cc2c([nH]1)/C=C1\C(=O)Nc3ccc(cc31)-c1c(C)n[nH]c1CNCCN(C)C2=O | 0.05 |
| Cc1cc2c([nH]1)/C=C1\C(=O)Nc3cc(Cl)c(cc31)OCCO[C@@H](C(=O)NC1CNC1)CN(C)C2=O | 49 |
| Cc1cc2c([nH]1)/C=C1\C(=O)Nc3cc(Cl)c(cc31)OCCO[C@@H](C(=O)N[C@@H]1CCNC1)CN(C)C2=O | 14 |
| Cc1cc2c([nH]1)/C=C1\C(=O)Nc3ccc(cc31)-c1cnn(C)c1CN(C)CCN(C)C2=O | 0.75 |
| CNC(=O)[C@H]1CN(C)C(=O)c2cc(C)[nH]c2/C=C2\C(=O)Nc3cc(Cl)c(cc32)OCCO1 | 47 |
| Cc1cc2c([nH]1)/C=C1\C(=O)Nc3cc(Cl)c(cc31)OCCO[C@@H](C(=O)N(C)C)CN(C)C2=O | 51 |
| Cc1cc2c([nH]1)/C=C1\C(=O)Nc3ccc(cc31)-c1cnn(C)c1CNCCN(C)C2=O | 0.05 |
| Cc1cc2c([nH]1)/C=C1\C(=O)Nc3cnc(cc31)-c1cnn(C)c1COCCNC2=O | 100 |
| Cc1cc2c([nH]1)/C=C1\C(=O)Nc3ccc(cc31)O[C@@H](C)COCCN(C)C2=O | 34 |
| Cc1cc2c([nH]1)/C=C1\C(=O)Nc3cnc(nc31)N(C)CCCOCCN(C)C2=O | 100 |

a: Cc1cc2c([nH]1)/C=C1\C(=O)Nc3ccc(cc31)OCCOCCNC2=O
b: Cc1cc2c([nH]1)/C=C1\C(=O)Nc3ccc(cc31)-c1c(noc1C)COCCN(C)C2=O
c: Cc1cc2c([nH]1)/C=C1\C(=O)Nc3cc(Cl)c(cc31)OCCOCCN(C)C2=O
d: Cc1cc2c([nH]1)/C=C1\C(=O)Nc3ccc(cc31)-c1cnn(C)c1COCCN(C)C2=O
e: Cc1cc2c([nH]1)/C=C1\C(=O)Nc3cc(Cl)c(cc31)OCCO[C@@H](C(=O)NC1CCNCC1)CN(C)C2=O
Descending sort on % Ctrl, ABL1(Q252H)-phosphorylated required. Output the labels ranked as instructed.
a, b, e, c, d

----------
molecular target: kinases (Homo sapiens, UniProt P00519, T315I); construct: purchased Eurofins/DiscoveRx; host or cells: E. coli BL21-derived host (T7 phage display) for most kinases; HEK-293 for the rest; test: KINOMEscan kinase binding assay (Eurofins/DiscoveRx), % Ctrl; details: 1 μM; target ABL1(T315I)-phosphorylated
measured-parameter: % Ctrl, ABL1(T315I)-phosphorylated (% Ctrl)

# example entries with known answers
| molecule | measured-parameter | result-unit | meas-value |
| --- | --- | --- | --- |
| CN1CCOc2cc3c(cc2Cl)NC(=O)/C3=C\c2[nH]ccc2C(=O)N(C)CC1 [Ex. 164] | % Ctrl, ABL1(T315I)-phosphorylated | % Ctrl | 1.4 |
| Cc1cc2c([nH]1)/C=C1\C(=O)Nc3cnc(cc31)-c1cnn(C)c1CN(C)CCN(C)C2=O [Ex. 172] | % Ctrl, ABL1(T315I)-phosphorylated | % Ctrl | 1.7 |

P: Cc1cc2c([nH]1)/C=C1\C(=O)Nc3ccc(cc31)-c1c(noc1C(C)C)COCCN(C)C2=O [Ex. 161]
Q: Cc1cc2c([nH]1)/C=C1\C(=O)Nc3cc(Cl)c(cc31)SCCOCCN(C)C2=O [Ex. 169]
R: Cc1cc2c([nH]1)/C=C1\C(=O)Nc3ccc(cc31)-c1cnn(C)c1OCCCN(C)C2=O [Ex. 166]
# ascending order, key=% Ctrl, ABL1(T315I)-phosphorylated Output the labels ranked as instructed.
Q, R, P

----------
Target: kinases (Homo sapiens, UniProt P36888, D835Y)
Construct: purchased Eurofins/DiscoveRx; host or cells: E. coli BL21-derived host (T7 phage display) for most kinases; HEK-293 for the rest
Sequence (P36888 27-993 D835Y): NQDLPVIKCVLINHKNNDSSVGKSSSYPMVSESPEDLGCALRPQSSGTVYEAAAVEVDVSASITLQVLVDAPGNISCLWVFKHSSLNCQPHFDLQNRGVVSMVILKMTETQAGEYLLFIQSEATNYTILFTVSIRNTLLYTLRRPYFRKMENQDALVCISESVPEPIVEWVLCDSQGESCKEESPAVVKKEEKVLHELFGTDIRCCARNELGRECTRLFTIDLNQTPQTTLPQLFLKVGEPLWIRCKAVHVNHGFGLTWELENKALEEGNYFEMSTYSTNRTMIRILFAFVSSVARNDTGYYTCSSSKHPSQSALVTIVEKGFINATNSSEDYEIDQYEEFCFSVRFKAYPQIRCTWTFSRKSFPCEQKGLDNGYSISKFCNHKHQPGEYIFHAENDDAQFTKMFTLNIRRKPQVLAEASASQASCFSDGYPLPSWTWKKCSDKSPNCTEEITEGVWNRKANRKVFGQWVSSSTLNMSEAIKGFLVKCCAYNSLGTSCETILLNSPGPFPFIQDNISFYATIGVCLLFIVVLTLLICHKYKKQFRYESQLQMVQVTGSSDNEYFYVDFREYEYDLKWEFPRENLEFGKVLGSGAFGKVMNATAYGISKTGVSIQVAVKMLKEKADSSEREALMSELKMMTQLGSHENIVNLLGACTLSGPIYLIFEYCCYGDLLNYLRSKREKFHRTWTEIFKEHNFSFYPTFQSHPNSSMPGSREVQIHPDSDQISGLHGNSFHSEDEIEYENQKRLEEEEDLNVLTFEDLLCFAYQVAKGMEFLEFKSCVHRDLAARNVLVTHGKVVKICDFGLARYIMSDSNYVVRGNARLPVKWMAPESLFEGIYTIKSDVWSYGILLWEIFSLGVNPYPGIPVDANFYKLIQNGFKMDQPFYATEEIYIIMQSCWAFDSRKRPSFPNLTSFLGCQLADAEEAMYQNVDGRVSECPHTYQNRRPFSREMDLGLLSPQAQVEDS
Test: KINOMEscan kinase binding assay (Eurofins/DiscoveRx), % Ctrl
Conditions: 1 μM; FLT3(D835Y)
measured-parameter: % Ctrl, FLT3(D835Y) (% Ctrl)

| compound | % Ctrl, FLT3(D835Y) (% Ctrl) |
| --- | --- |
| Cc1cc2c([nH]1)/C=C1\C(=O)Nc3cc(Cl)c(cc31)OCCO[C@@H](C(=O)N[C@@H]1CCNC1)CN(C)C2=O [Ex. 136] | 2.6 |
| Cc1cc2c([nH]1)/C=C1\C(=O)Nc3ccc(cc31)OCCOCCN(C)C2=O [Ex.91] | 0.25 |
| Cc1cc2c([nH]1)/C=C1\C(=O)Nc3ccc(cc31)CN(C)C(=O)COCCNC2=O [Ex.111] | 9.1 |
| Cc1cc2c([nH]1)/C=C1\C(=O)Nc3cc(Cl)c(cc31)OCCO[C@@H](C(=O)NC1CCNCC1)CN(C)C2=O [Ex. 134] | 10 |
| Cc1cc2c([nH]1)/C=C1\C(=O)Nc3ccc(nc31)-c1ccccc1OCCCNC2=O [Ex.22] | 93 |
| Cc1cc2c([nH]1)/C=C1\C(=O)Nc3ccc(cc31)-c1ccnn1CCNCCNC2=O [Ex. 43] | 86 |
| Cc1cc2c([nH]1)/C=C1\C(=O)Nc3ccc(cc31)-c1c(noc1C)COCCN(C)C2=O [Ex. 128] | 22 |
| Cc1cc2c([nH]1)/C=C1\C(=O)Nc3cc(Cl)c(cc31)OCCO[C@@H](C(=O)NC1CNC1)CN(C)C2=O [Ex. 133] | 3.1 |

a: Cc1cc2c([nH]1)/C=C1\C(=O)Nc3ccc(cc31)-c1cnn(C)c1CN(C)CCN(C)C2=O [Ex. 126]
b: Cc1cc2c([nH]1)/C=C1\C(=O)Nc3ccc(cc31)-c1ccnn1CCOCCNC2=O [Ex.39]
Kindly compare a with b and tell me which has the lower % Ctrl, FLT3(D835Y) figure. Your answer should be the label attached to the chosen record.
a

I: Cc1cc2c([nH]1)/C=C1\C(=O)Nc3cnc(nc31)N(C)CCCOCCN(C)C2=O [Ex.71]
II: Cc1cc2c([nH]1)/C=C1\C(=O)Nc3ccc(cc31)-c1c(C)n[nH]c1CNCCN(C)C2=O [Ex. 127]
III: Cc1cc2c([nH]1)/C=C1\C(=O)Nc3ccc(cc31)-c1cnn(C)c1COCCN(C)C2=O [Ex. 124]
IV: Cc1cc2c([nH]1)/C=C1\C(=O)Nc3cc(Cl)c(cc31)OCCO[C@@H](C(=O)N(C)C)CN(C)C2=O [Ex. 137]
V: Cc1cc2c([nH]1)/C=C1\C(=O)Nc3ccc(cc31)OCCOCCNC2=O [Ex. 129]
# ascending order, key=% Ctrl, FLT3(D835Y) Output the labels ranked as instructed.
II, III, V, IV, I
(II: 1.4 % Ctrl, III: 5.6 % Ctrl, V: 9.1 % Ctrl, IV: 14 % Ctrl, I: 94 % Ctrl)
